Origin of values: patent US4298734A

Catalogue of inhibition in vivo at 10 mg/kg values
system: methacholine-induced bronchospasm in the rat; experiment: Methacholine-induced bronchospasm (pulmonary ventilation pressure) in anesthetized rat; type: in vivo; conditions: intraduodenal, dose 10 mg./kg., read-out: Methacholine Bronchospasm, percent inhibition
Express the reported value numerically, then name its unit.

[[record]]
compound = "CC(C)CN1C2=NCCN2C(=O)c2[nH]cnc21 [Procedure 13]"
endpoint_value = "63%"

[[record]]
compound = "O=C1c2[nH]cnc2N(Cc2ccc(F)cc2)C2=NCCN12 [Procedure 8]"
endpoint_value = "55.5%"

[[record]]
compound = "O=C1c2[nH]cnc2N(CCCc2ccccc2)C2=NCCN12 [Procedure 62]"
endpoint_value = "22%"


Q: Reported inhibition in vivo at 10 mg/kg, compound O=C1c2[nH]cnc2N(Cc2cccc(Cl)c2)C2=NCCN12 [Procedure 5] : ____
Ans: 64%

Q: Then CCc1nc2c([nH]1)C(=O)N1CCN=C1N2Cc1ccc(Cl)cc1 [Procedure 14] ?
Ans: 26%

---

system: methacholine-induced bronchospasm in the rat; experiment: Methacholine-induced bronchospasm (pulmonary ventilation pressure) in anesthetized rat; type: in vivo; settings: intraduodenal, dose 10 mg./kg., read-out: Methacholine Bronchospasm, percent inhibition
As shown below, each of these compounds has a reported inhibition in vivo at 10 mg/kg value.
Answers without a unit are incomplete; give the number and then its unit.

Check out these entries, answers already filled in.
[[record]]
compound = "O=C1c2[nH]cnc2N(CCOc2ccc(Cl)cc2)C2=NCCN12 [Procedure 57]"
endpoint_value = "66%"

[[record]]
compound = "O=C1c2[nH]nnc2N(Cc2ccc(F)cc2)C2=NCCN12 [Procedure 27]"
endpoint_value = "30%"

[[record]]
compound = "CC(C)CN1C2=NCCN2C(=O)c2c1ncn2CCOc1ccccc1 [Procedure 39]"
endpoint_value = "34.7%"

[[record]]
compound = "CCCCn1cnc2c1C(=O)N1CCN=C1N2Cc1ccc(Cl)cc1 [Procedure 24]"
endpoint_value = "16%"

[[record]]
compound = "O=C1c2c(ncn2Cc2ccc(F)cc2)N(Cc2ccc(F)cc2)C2=NCCN12 [Procedure 44]"
endpoint_value = "0%"


Next compound, inhibition in vivo at 10 mg/kg to be filled in.
Q: Looking for the measured inhibition in vivo at 10 mg/kg of O=C1c2[nH]cnc2N(CC2CCCCC2)C2=NCCN12 [Procedure 59] , can you help?
Ans: 45.8%
